Test: Chemical/aqueous solvolysis reactivity followed by UV
Format: physicochemical
Result Type: solvolysis reactivity/stability in words or rank order

Molecule	Observed Value
O=C1C=C2NCCC3CC23c2ccccc21 (stereo not drawn) [CBQ, reference compound]	CBI<CBQ<CNA
O=C1C=C2NCC3CC23c2ccccc21 (stereo not drawn) [CBI, reference compound]	CBI<CBQ<CNA

====

Test system: duplex DNA (w794, w836, c988, c820, c1346)
Assay type: biochemical, SV40
Result Type: AT-rich adenine N3 alkylation selectivity (size of site) (base-pair)
Numbers only, in base-pair.

Molecule	Observed Value
COC(=O)c1cc2c([nH]1)C(=O)C=C1N(C(=O)OC(C)(C)C)C[C@@H]3C[C@@]123 [ent-(-)-N--BOC-DSA]	2
COC(=O)c1cc2c3c(ccc2[nH]1)N(C(=O)c1cc2c4c(ccc2[nH]1)N(C(=O)c1cc2c([nH]1)C(=O)C=C1N(C(=O)OC(C)(C)C)C[C@@H]5C[C@@]125)CC4)CC3 [ent-(-)-CDPI2 -DSA]	5
COC(=O)c1cc2cc(NC(=O)c3cc4cc(NC(=O)c5cc6c([nH]5)C(=O)C=C5N(C(=O)OC(C)(C)C)CC7CC567)ccc4[nH]3)ccc2[nH]1 (centres unmarked)	5

Dear colleague, could you please provide AT-rich adenine N3 alkylation selectivity (size of site) for the molecules listed below?
1. COC(=O)c1cc2c3c(ccc2[nH]1)N(C(=O)c1cc2c([nH]1)C(=O)C=C1N(C(=O)OC(C)(C)C)CC4CC124)CC3 (centres unmarked)
2. COc1c(O)c2c(c3cc(C(=O)N4CCc5c4c(O)c(OC)c4[nH]c(C(=O)N6CC7CC78C6=CC(=O)c6[nH]cc(C)c68)cc54)[nH]c13)CCN2C(N)=O (stereo not drawn) [ent-(-)-CC-1065, reference compound]

Resp:
1: 3.5; 2: 5

Dear colleague, could you please provide AT-rich adenine N3 alkylation selectivity (size of site) for the molecules listed below?
1. COC(=O)c1cc2c([nH]1)C(=O)C=C1N(C(=O)OC(C)(C)C)C[C@H]3C[C@]123 [(+)-N--BOC-DSA]
2. COC(=O)c1cc2c([nH]1)C(=O)C=C1N(C(=O)c3cc4c5c(ccc4[nH]3)N(C(=O)c3cc4c6c(ccc4[nH]3)N(C(N)=O)CC6)CC5)CC3CC123 (single isomer, unassigned; (+)) [(+)-DSA-CDPI2]
3. COC(=O)c1cc2c3c(ccc2[nH]1)N(C(=O)c1cc2c4c(ccc2[nH]1)N(C(=O)c1cc2c([nH]1)C(=O)C=C1N(C(=O)OC(C)(C)C)C[C@H]5C[C@]125)CC4)CC3 [(+)-CDPI2 -DSA]
4. COC(=O)c1cc2c3c(ccc2[nH]1)N(C(=O)c1cc2c([nH]1)C(=O)C=C1N(C(=O)c4cc5c6c(ccc5[nH]4)N(C(N)=O)CC6)CC4CC124)CC3 (centres unmarked) [compound 30]
5. COC(=O)c1cc2c([nH]1)C(=O)C=C1N(C(=O)c3cc4cc(OC)c(OC)c(OC)c4[nH]3)CC3CC123 (centres unmarked)
6. COC(=O)c1cc2c([nH]1)C(=O)C=C1N(C(=O)OC(C)(C)C)CC3CC123 (centres unmarked)
7. COC(=O)c1cc2cc(NC(=O)c3cc4c([nH]3)C(=O)C=C3N(C(=O)OC(C)(C)C)CC5CC345)ccc2[nH]1 (centres unmarked)
8. COC(=O)c1cc2c3c(ccc2[nH]1)N(C(=O)c1cc2c([nH]1)C(=O)C=C1N(C(=O)c4cc5c6c(ccc5[nH]4)N(C(N)=O)CC6)CC4CC124)CC3 (single isomer, unassigned; (+)) [(+)-30]

Resp:
[2, 5, 5, 5, 3.5, 2, 3.5, 5]

Req: Complete the entry with AT-rich adenine N3 alkylation selectivity (size of site) for COc1c(O)c2c(c3cc(C(=O)N4CCc5c4c(O)c(OC)c4[nH]c(C(=O)N6C[C@H]7C[C@@]78C6=CC(=O)c6[nH]cc(C)c68)cc54)[nH]c13)CCN2C(N)=O [(+)-CC-1065, reference compound]
Resp: 5

meta.source: patent US6281354A
